target: UniProtKB P07306; assay: Affinity to ASGPR measured by surface plasmon resonance (SPR); format: binding; settings: ASGPR ligands, Table 2; Biacore 8K, 25° C., steady state fit; read-out: SPR Binding External Calculation: KD
Sequence (P07306 whole entry): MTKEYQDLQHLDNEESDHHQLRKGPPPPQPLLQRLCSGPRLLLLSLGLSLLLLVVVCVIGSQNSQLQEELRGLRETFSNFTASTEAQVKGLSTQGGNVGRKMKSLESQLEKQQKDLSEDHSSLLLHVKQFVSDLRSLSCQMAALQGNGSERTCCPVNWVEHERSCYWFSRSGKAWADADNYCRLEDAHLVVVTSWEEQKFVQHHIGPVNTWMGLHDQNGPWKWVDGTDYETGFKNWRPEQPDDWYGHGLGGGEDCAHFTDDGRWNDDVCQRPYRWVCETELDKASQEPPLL
pKd: −log10 of the molar value.
Some compounds, each annotated with its measured pKd.

Solved entries:
| COMPOUND | RESULT |
| --- | --- |
| OC[C@H]1OC[C@@H](Cn2cnnn2)[C@@H](O)[C@H]1O [Compound A196] | > 4.00 |
| CO[C@@H]1O[C@H](CO)[C@H](O)[C@H](O)[C@H]1Nc1nc(N2CCOCC2)ns1 [Compound A117] | 3.30 to 4.00 |
| CO[C@H]1O[C@H](CO)[C@H](O)[C@H](O)[C@H]1Nc1ncc(Cl)cc1F [Compound A113] | > 4.00 |

Now turn to the next compound.
## Input Query: pKd; subject: OC[C@H]1OC[C@H](Nc2ncc(Cl)cc2F)[C@@H](O)[C@H]1O [Compound A100]
## Output > 4.00

These data points were gathered from patent US20240072809A1.
